Data provenance is patent US11266645B2.

Assay Procedure: Food and proton pump inhibitor crossover PK study in healthy subjects
Assay type: in vivo, human
Condition Set: human, in vivo, po, 30 mg, Fasted, 30 mg oral; read-out: AUC0−inf Mean
Experimental: In an open-label, randomized, 3-period crossover study, healthy subjects received 30 mg cerdulatinib orally. The 3-period treatments were fasted, high-fat diet, and proton pump inhibitor (PPI) esomaprazole, with 14-day washout between treatments. Blood samples were collected up to 72 hours after cerdulatinib treatment. PK endpoints were area under the curve (AUC), maximum concentration (Cmax), Time to Cmax (Tmax), and half-live (T1/2).
Reported Property: AUC(0-inf) (ng·h/mL)
Give bare numbers, in ng·h/mL.

Notebook: `CCS(=O)(=O)N1CCN(c2ccc(Nc3ncc(C(N)=O)c(NC4CC4)n3)cc2)CC1` , AUC(0-inf) read as 3460

###

Assay Procedure: Food and proton pump inhibitor crossover PK study in healthy subjects
Format: in vivo, human
Condition Set: human, blood, po, 30 mg, Fed (high-fat diet), 30 mg oral; read-out: AUC0−inf Mean
Reported Property: AUC(0-inf)

Notebook: `CCS(=O)(=O)N1CCN(c2ccc(Nc3ncc(C(N)=O)c(NC4CC4)n3)cc2)CC1` , AUC(0-inf) read as 4060 ng·h/mL

###

Assay Procedure: Food and proton pump inhibitor crossover PK study in healthy subjects
Format: in vivo, human
Condition Set: human, in vivo, po, 30 mg, PPI (esomaprazole), 30 mg oral
Reported Property: Cmax (ng/mL)
Give bare numbers, in ng/mL.

Notebook: `CCS(=O)(=O)N1CCN(c2ccc(Nc3ncc(C(N)=O)c(NC4CC4)n3)cc2)CC1` , Cmax read as 170

###

Tested on: JAK/STAT signaling (JAK1, JAK3, and TYK2 dependent)
Assay Procedure: Whole blood IL-2, IL-4, IL-6 stimulated STAT phosphorylation after oral dosing
Assay type: cell-based, human
Condition Set: Homo sapiens, B-cell; B cells, patients; read-out: average IC50, IL-4 signaling (pSTAT6 Y641)
Reported Property: pIC50
Answers are plain numbers, as −log10 of the molar value.

Tested on JAK/STAT signaling (JAK1, JAK3, and TYK2 dependent), the item CCS(=O)(=O)N1CCN(c2ccc(Nc3ncc(C(N)=O)c(NC4CC4)n3)cc2)CC1 [cerdulatinib] showed pIC50 equal to 5.97

###

Assay Procedure: Food and proton pump inhibitor crossover PK study in healthy subjects
Assay type: in vivo, human
Condition Set: human, blood; Fed (high-fat diet), 30 mg oral; read-out: Tmax Median
Reported Property: Tmax (h)
Give bare numbers, in h.

Notebook: `CCS(=O)(=O)N1CCN(c2ccc(Nc3ncc(C(N)=O)c(NC4CC4)n3)cc2)CC1` , Tmax read as 6

###

Assay Procedure: Food and proton pump inhibitor crossover PK study in healthy subjects
Type: in vivo, human
Condition Set: human, in vivo; PPI (esomaprazole), 30 mg oral; read-out: Tmax Median
Reported Property: Tmax (h)
Numbers only, in h.

Notebook: `CCS(=O)(=O)N1CCN(c2ccc(Nc3ncc(C(N)=O)c(NC4CC4)n3)cc2)CC1` , Tmax read as 4

###

Assay Procedure: Food and proton pump inhibitor crossover PK study in healthy subjects
Format: in vivo, human
Condition Set: human, in vivo, po, 30 mg, PPI (esomaprazole), 30 mg oral; read-out: AUC0−inf Mean
Reported Property: AUC(0-inf) (ng·h/mL)
Answers are plain numbers, in ng·h/mL.

Notebook: `CCS(=O)(=O)N1CCN(c2ccc(Nc3ncc(C(N)=O)c(NC4CC4)n3)cc2)CC1` , AUC(0-inf) read as 3680
